# Target System: UniProt Q6Y7W6
# Sequence (Q6Y7W6 whole entry): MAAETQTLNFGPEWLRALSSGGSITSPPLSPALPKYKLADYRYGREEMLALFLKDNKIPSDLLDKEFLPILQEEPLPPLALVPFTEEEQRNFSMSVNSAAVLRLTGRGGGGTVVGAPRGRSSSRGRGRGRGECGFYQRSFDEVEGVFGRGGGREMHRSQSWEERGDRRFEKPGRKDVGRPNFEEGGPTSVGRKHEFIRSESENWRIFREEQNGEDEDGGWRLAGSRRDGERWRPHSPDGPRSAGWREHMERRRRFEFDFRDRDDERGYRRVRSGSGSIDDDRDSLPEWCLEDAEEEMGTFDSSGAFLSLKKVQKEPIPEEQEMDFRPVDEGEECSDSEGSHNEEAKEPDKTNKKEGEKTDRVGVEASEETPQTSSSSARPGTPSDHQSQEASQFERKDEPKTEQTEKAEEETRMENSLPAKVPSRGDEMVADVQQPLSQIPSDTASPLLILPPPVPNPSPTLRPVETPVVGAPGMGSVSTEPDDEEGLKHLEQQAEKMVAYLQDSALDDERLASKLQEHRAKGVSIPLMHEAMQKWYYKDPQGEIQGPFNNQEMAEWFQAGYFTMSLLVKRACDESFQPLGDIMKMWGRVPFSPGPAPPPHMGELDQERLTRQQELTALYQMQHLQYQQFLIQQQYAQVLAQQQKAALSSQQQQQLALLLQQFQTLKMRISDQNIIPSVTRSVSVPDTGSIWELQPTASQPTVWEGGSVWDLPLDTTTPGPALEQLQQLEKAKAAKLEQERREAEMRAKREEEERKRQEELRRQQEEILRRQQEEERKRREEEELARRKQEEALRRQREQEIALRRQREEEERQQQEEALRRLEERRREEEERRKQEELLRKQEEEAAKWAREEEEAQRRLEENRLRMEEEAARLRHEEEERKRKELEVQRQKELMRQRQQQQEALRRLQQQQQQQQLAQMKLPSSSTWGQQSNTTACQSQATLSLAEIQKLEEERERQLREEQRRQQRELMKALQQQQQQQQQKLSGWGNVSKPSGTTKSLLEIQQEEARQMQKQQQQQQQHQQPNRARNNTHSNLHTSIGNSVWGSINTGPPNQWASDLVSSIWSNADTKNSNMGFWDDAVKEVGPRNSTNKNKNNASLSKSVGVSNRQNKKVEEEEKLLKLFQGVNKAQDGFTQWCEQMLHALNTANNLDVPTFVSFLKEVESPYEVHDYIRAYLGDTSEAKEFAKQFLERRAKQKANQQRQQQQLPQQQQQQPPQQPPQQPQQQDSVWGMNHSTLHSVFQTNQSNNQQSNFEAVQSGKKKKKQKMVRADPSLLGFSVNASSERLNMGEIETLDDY
# Protocol Notes: Binding affinity to recombinant His-tagged Grb10 interacting GYF protein 2 (745-1030 amino acids) (unknown origin) by surface plasmon resonance analysis
pKd: −log10 of the molar value.
Measurement Label: pKd

- CCC(=C(c1ccc(OCCN2CCCC2)cc1)c1ccc(OCCN2CCCC2)cc1)c1cccc(OC(=O)CCCCCNC(=O)CCCC[C@@H]2SC[C@@H]3NC(=O)N[C@@H]32)c1: 6.73
